Tested on: OVCAR-5 ovarian
assay remarks: NCI tumour cell line growth inhibition, 48 h
Quick list: TGI per entry.

compound	system tested	rel	TGI / µM
O=C(CCCl)NNC1=NCCCCN1	OVCAR-5 ovarian	>	100
Nc1nc(N)c2c(n1)NC(c1ccccc1)C1CCc3ccccc3C1=N2 (centres undefined)	OVCAR-5 ovarian	=	28
O=S(=O)(c1ccccc1)n1cc(C[P+](c2ccccc2)(c2ccccc2)c2ccccc2)c2ccccc21	OVCAR-5 ovarian	=	32.2
Oc1ccccc1C1=NOC(c2ccc(C(F)(F)F)cc2)C1 (centres undefined)	OVCAR-5 ovarian	>	50

---

System: K-562 leukemia
assay remarks: NCI tumour cell line growth inhibition, 48 h
Quick list: TGI per entry.

molecule	TGI
COc1cc(Nc2nnc3n2S(=O)(=O)c2cc(C)c(Cl)cc2S3)cc(OC)c1	> 100 µM
C=C(CC(=O)O)C(=O)O (tested in a mixture with another compound)	> 50 µg/mL
NCCCCC(=O)c1cccnc1	> 100 µM
C(=N\OCCc1ccccc1)/c1cccnc1	> 100 µM
O=C(NC(Nc1ccc(F)cc1)(C(F)(F)F)C(F)(F)F)C(C(F)(F)F)C(F)(F)F	> 100 µM
O=c1c2cc(Cl)ccc2[nH]c2cc(O)cc(O)c12	> 10 µM

---

System: ACHN renal
assay remarks: NCI tumour cell line growth inhibition, 48 h; in the data active means GI50 below about 0.43 µM; inactive means the rest
Classes used: active, inactive

molecule	system tested	group label
CCCCNC(=O)Oc1ccc(/C(=C(/C)Cc2ccc(OC)cc2)c2ccc(OCCN3CCCC3)cc2)cc1	ACHN renal	inactive
Cc1ccc(C2=C(c3ccc(C)cc3)C3(c4ccc(C)cc4)C4C(=O)c5ccccc5C(=O)C4C2(c2ccc(C)cc2)S3=O)cc1 (centres undefined)	ACHN renal	inactive
COc1ccc(/C=C2\CN(Cc3cn(CCNc4ccnc5cc(Cl)ccc45)nn3)C/C(=C\c3ccc(OC)c(OC)c3)C2=O)cc1OC	ACHN renal	inactive
Cn1c2ccccc2c2c3[nH][nH]c(=O)c3c3c4ccccc4[nH]c3c21	ACHN renal	inactive
CC(=O)[CH-]C(=O)c1ccccc1.CC(=O)[CH-]C(=O)c1ccccc1.Cl.[O-]c1ccccn1.[O-]c1ccccn1.[Ti+4]	ACHN renal	inactive
O=S1(=O)CS(=O)(=O)OCCO1	ACHN renal	inactive
CN(C)CC(C(=O)Cc1ccccc1)c1ccccc1 (centres undefined)	ACHN renal	inactive
COc1cc(-c2cc(/C=C/C(=O)c3ccc(Cl)c(Cl)c3)[nH]n2)cc(OC)c1OC	ACHN renal	inactive
COc1cc(C2C3=C(COC3=O)Nc3c2ccc2c3CCCC2)cc2c1OCO2 (centres undefined)	ACHN renal	active

---

System: MOLT-4 leukemia
assay remarks: NCI tumour cell line growth inhibition, 48 h
Quick list: TGI per entry.

molecule	system tested	rel	TGI [µM]
O=C(O)C1(Cc2ccc3c(c2)CCC3)Cc2ccccc2C1	MOLT-4 leukemia	>	100
Cc1ccc(C2=C(c3ccccc3)C(c3ccccc3)Oc3ccc(C)cc32)cc1 (stereo not given)	MOLT-4 leukemia	=	31.5
C[n+]1c(-c2ccc(/C=N/NC(=O)c3ccc(C(=O)N/N=C/c4ccc(-c5cn6ccccc6[n+]5C)cc4)cc3)cc2)cn2ccccc21	MOLT-4 leukemia	=	292
CN1CCN(Cc2ccc(NC(=O)c3cncc(C#Cc4cncc5nccnc45)c3)cc2C(F)(F)F)CC1	MOLT-4 leukemia	=	13.2
CCCCNC(=O)Oc1ccc(/C(=C(/C)Cc2ccc(OC)cc2)c2ccc(OCCN3CCCC3)cc2)cc1	MOLT-4 leukemia	=	7.72
CCN(CC)/[N+]([O-])=N/OCOC(C)=O	MOLT-4 leukemia	>	100
Nc1c(-c2ccccc2[N+](=O)[O-])nc2ccccn12	MOLT-4 leukemia	>	100
O=S1(=O)CS(=O)(=O)OCCO1	MOLT-4 leukemia	=	100
Cc1ccc(-c2cc(=O)c3cc(C)c(C)c(C(=O)O)c3o2)cc1N	MOLT-4 leukemia	>	100
COc1c(-c2ccc(O)c(O)c2)oc2c(O)c(O)cc(O)c2c1=O	MOLT-4 leukemia	=	73.8

The reported numbers originate from PubChem BioAssay (NCI).
